# assay target: T1, VHL protein, HA-tagged, in vitro translated from p(HA)VHL (UniProt P40337 1-213)
# T1 construct: not shown: HA tag
# T1 sequence (P40337 whole entry): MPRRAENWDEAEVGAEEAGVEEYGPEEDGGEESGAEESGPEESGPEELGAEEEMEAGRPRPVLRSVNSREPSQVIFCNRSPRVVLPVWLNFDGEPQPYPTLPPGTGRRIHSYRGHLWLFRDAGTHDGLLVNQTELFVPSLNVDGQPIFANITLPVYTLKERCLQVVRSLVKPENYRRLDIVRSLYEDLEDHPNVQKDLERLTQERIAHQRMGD
# experiment description: in vitro co-immunoprecipitation with anti-VHL, 35S-labeled Gal4 fusion

{"binder": "Gal4-HIF1α(498-603)L574S (other, not shown: large carriers; small tags and cut ends, also called Gal4-C-ODD L574S mutant) TPSPSDGSTRQSSPEPNSPSEYCFYVDSDMVNEFKLELVEKLFAEDTEAKNPFSTQDTDLDLEMLAPYIPMDDDFQSRSFDQLSPLESSSASPESASPQSTVTVFQ", "binding result": "no binding"}
{"binder": "Gal4-HIF1α(530-573) (other) MKLLSSIEQACDICRLKKLKCSKEKPKCAKCLKNNWECRYSPKTKRSPLTRAHLTEVESRLERLEQLFLLIFPREDLDMILKMDSLQDIKALLTGLFVQDNVNKDAVTDRLASVETDMPLTLRQHRISATSSSEESSNKGQRQLTVSEFKLELVEKLFAEDTEAKNPFSTQDTDLDLEMLAPYIPMDDDFQ", "binding result": "no binding"}
{"binder": "Gal4-HIF1α(498-574)L574S (other, not shown: large carriers; small tags and cut ends) TPSPSDGSTRQSSPEPNSPSEYCFYVDSDMVNEFKLELVEKLFAEDTEAKNPFSTQDTDLDLEMLAPYIPMDDDFQS", "binding result": "no binding"}

Where do the numbers come from? From patent US20050202450A1.
